Biological target: T1, truncated hTfR1 of SEQ ID NO:122 (human, UniProt P02786 122-760)
T1 construct: also called human TfR1; Human TfR1
T1 sequence (P02786 other isoform, or with tags, fused parts or gaps limits assumed): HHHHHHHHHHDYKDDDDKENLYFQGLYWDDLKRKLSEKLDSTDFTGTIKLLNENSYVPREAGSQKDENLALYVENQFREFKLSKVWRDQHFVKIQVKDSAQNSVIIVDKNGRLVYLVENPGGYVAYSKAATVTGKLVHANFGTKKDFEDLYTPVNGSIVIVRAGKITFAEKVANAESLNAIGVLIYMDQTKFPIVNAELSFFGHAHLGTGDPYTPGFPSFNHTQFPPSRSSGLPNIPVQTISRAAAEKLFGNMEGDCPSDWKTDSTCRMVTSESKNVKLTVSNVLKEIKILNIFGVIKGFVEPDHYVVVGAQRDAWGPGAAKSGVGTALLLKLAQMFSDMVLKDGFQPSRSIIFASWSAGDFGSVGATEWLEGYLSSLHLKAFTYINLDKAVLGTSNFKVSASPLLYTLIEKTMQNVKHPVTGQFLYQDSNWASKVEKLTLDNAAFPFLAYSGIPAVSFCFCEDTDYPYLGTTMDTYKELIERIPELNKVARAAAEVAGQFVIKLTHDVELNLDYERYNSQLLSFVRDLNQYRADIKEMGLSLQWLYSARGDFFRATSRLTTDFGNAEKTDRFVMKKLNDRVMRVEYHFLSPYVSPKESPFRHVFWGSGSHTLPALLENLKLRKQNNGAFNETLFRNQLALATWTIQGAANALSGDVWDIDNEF
Assay: SPR follow-up, 4 replicates, FLAG-captured hTfR1, scFv injected
Tick YES if kon is 70000 M⁻¹ s⁻¹ or greater. Tick NO if kon is less than 70000 M⁻¹ s⁻¹.

• h26D3 HC6 DS V11R T120K (scFv, also called h26D3 DS V11R T120K) scFv: HHHHHHGGGGSGGGGSGGGGSGGGGSDIQMTQSPSSVSASVGDRVTITCKSSQSLLYSTNQKNYLAWYQQKPGKAPKLLIYWASTRESGVPSRFSGSGSGTDFTLTISSLQPEDFATYYCQQYFIYPRTFGCGTKVEIKGGGGSGGGGSGGGGSGGGGSEVQLVQSGAERKKPGSSVKVSCKASGYIFTDYNMDWVRQAPGQCLEWIGDINPDADTTSYNEKFKGRATLTVDKSTSTAYMELSSLRSEDTAVYYCARGGYSGSSYYHPMDYWGQGTLVKVSS = YES
• h26D3 HC6 DS V11R T91A (scFv, also called h26D3 DS V11R T91A) scFv: HHHHHHGGGGSGGGGSGGGGSGGGGSDIQMTQSPSSVSASVGDRVTITCKSSQSLLYSTNQKNYLAWYQQKPGKAPKLLIYWASTRESGVPSRFSGSGSGTDFTLTISSLQPEDFATYYCQQYFIYPRTFGCGTKVEIKGGGGSGGGGSGGGGSGGGGSEVQLVQSGAERKKPGSSVKVSCKASGYIFTDYNMDWVRQAPGQCLEWIGDINPDADTTSYNEKFKGRATLTVDKSTSTAYMELSSLRSEDAAVYYCARGGYSGSSYYHPMDYWGQGTLVTVSS = YES
• h26D3 HC6 DS S122K (scFv, also called h26D3 DS S122K) scFv: HHHHHHGGGGSGGGGSGGGGSGGGGSDIQMTQSPSSVSASVGDRVTITCKSSQSLLYSTNQKNYLAWYQQKPGKAPKLLIYWASTRESGVPSRFSGSGSGTDFTLTISSLQPEDFATYYCQQYFIYPRTFGCGTKVEIKGGGGSGGGGSGGGGSGGGGSEVQLVQSGAEVKKPGSSVKVSCKASGYIFTDYNMDWVRQAPGQCLEWIGDINPDADTTSYNEKFKGRATLTVDKSTSTAYMELSSLRSEDTAVYYCARGGYSGSSYYHPMDYWGQGTLVTVKS = YES
• h26D3 HC6 DS T91S T120K (scFv, also called h26D3 DS T91S T120K) scFv: HHHHHHGGGGSGGGGSGGGGSGGGGSDIQMTQSPSSVSASVGDRVTITCKSSQSLLYSTNQKNYLAWYQQKPGKAPKLLIYWASTRESGVPSRFSGSGSGTDFTLTISSLQPEDFATYYCQQYFIYPRTFGCGTKVEIKGGGGSGGGGSGGGGSGGGGSEVQLVQSGAEVKKPGSSVKVSCKASGYIFTDYNMDWVRQAPGQCLEWIGDINPDADTTSYNEKFKGRATLTVDKSTSTAYMELSSLRSEDSAVYYCARGGYSGSSYYHPMDYWGQGTLVKVSS = YES
• h26D3 HC6 DS T120K (scFv, also called h26D3 DS T120K) scFv: HHHHHHGGGGSGGGGSGGGGSGGGGSDIQMTQSPSSVSASVGDRVTITCKSSQSLLYSTNQKNYLAWYQQKPGKAPKLLIYWASTRESGVPSRFSGSGSGTDFTLTISSLQPEDFATYYCQQYFIYPRTFGCGTKVEIKGGGGSGGGGSGGGGSGGGGSEVQLVQSGAEVKKPGSSVKVSCKASGYIFTDYNMDWVRQAPGQCLEWIGDINPDADTTSYNEKFKGRATLTVDKSTSTAYMELSSLRSEDTAVYYCARGGYSGSSYYHPMDYWGQGTLVKVSS = NO
